molecular target: dipeptidyl peptidase-IV (DPP-IV) from porcine kidney (Sus scrofa); assay: Dipeptidyl peptidase-IV; type: biochemical; conditions: read-out: IC50 (DPP-IV inhibition); mean ± SD, N = 3
Sequence (P22411 whole entry): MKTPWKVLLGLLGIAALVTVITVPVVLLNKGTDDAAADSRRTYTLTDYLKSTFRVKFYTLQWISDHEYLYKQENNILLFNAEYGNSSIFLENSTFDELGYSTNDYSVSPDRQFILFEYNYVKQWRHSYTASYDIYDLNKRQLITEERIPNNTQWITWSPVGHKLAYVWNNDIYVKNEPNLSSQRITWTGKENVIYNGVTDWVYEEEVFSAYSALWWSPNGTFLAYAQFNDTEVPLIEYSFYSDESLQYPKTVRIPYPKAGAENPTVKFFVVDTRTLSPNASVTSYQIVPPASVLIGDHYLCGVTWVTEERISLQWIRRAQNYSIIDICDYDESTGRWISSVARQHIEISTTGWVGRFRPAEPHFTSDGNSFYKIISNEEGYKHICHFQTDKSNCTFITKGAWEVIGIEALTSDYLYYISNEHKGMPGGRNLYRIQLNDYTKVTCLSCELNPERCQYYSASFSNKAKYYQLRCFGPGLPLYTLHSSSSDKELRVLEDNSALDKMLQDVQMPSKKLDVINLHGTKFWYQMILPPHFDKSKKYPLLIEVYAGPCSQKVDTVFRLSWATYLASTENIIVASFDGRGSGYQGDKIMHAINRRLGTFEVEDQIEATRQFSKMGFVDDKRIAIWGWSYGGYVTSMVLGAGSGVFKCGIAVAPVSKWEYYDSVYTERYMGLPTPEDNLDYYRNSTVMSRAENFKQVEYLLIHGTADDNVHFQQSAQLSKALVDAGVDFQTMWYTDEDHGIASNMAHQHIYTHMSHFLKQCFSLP
measured quantity: IC50 (µM)
Quick note: give the figure in µM, leave out the unit.

Prompt: Provide IC50 value for the following molecule: COc1cc(OC)c(C(=O)/C=C/c2ccccc2)c(O)c1O [Compound 4, 2′,3′-dihydroxy-4′,6′-dimethoxychalcone]
Response: 28.7
